Below, each entry is listed with its recorded TGI.
Test system: CCRF-CEM leukemia
protocolNotes: NCI tumour cell line growth inhibition, 48 h
Where a SMILES comes first, the peptide text is derived from it. [ ]: non-standard residue; d: D form. The star is where a group is joined. ξ: configuration not given here. ξF = NC(Cc1ccccc1)C(=O)O; Cbz = O=C(OCc1ccccc1)*; Aib = CC(C)(N)C(=O)O
testReadout: TGI

* CCn1c2ccccc2c(=O)c2c(OC)ccc(OC)c21 | > 100 µM
* C=C1C[C@@H]2O[C@H]3[C@H]4[C@@H](C[C@@H](C)[C@@H](OC(C)=O)[C@H]42)[C@@H](C)CO[C@@]3(C)[C@H](OC(=O)CCCCCCC)C[C@H]1O | 38 µM
* NC(CCOCCP(=O)(O)CCC1C=CC=CC1)C(=O)O (stereo unspecified) | > 100 µM
* CCOc1cn(C2OC(CO)C(O)C2O)c(=O)[nH]c1=O (stereo unspecified) | > 100 µM
* CC1C(=O)CC(c2cccs2)N(N=O)C1c1cccs1 (stereo unspecified) | > 100 µM
* O=C1Cc2nc(CO)c(CO)c(CO)c2CO1 | > 100 µM
* OCC[N+]12CCCN1CCC2 | > 100 µM
* COc1ccc(NC(C)=O)cc1N1C(=O)/C(=C\c2ccccc2)SC1c1cc(OC)c(OC)c(OC)c1 (stereo unspecified) | > 100 µM
* CN(C)Cc1cc(C(=O)/C=C/c2ccc(Cl)c(Cl)c2)cc(CN(C)C)c1O | 11.7 µM
* O=c1c2ccccc2c(/C=N\NC2=NCCN2)c2oc3ccccc3n12 | > 100 µM
* CC1(C)C2CCC1(C)C(OC(=O)/C=C/C(=O)OC1CC3CCC1(C)C3(C)C)C2 (stereo unspecified) | 31.1 µM
* COC1=C(C)C(=O)c2c(c(CCCl)c3n2CCC3OC(C)=O)C1=O (stereo unspecified) | > 95.8 µM
* O=C(NNC1=NCCCN1)c1ccco1 | > 100 µM
* CC(=O)O[C@H]1CCN2C(=O)C=CC(OCc3ccccc3)C12 (stereo partly specified) | > 100 µM
* COC1(C)C(=O)N2C1N(C(=O)OC(C)(C)C)CC2(C)C (stereo unspecified) | > 100 µM
* Cc1ccc2cccc(OC(=O)Nc3cccc(C(F)(F)F)c3)c2n1 | 19.2 µM
* CC(C)(C)C(=O)Nc1cccc2oc(-c3ccccc3)cc12 | > 100 µM
* O=C(OCCCl)C1OC(n2cc(F)c(=O)[nH]c2=O)CC1O (stereo unspecified) | > 100 µM
* CCOC(=O)CNC(=O)C(Cc1ccccc1)NC(=O)C(C)(C)NC(=O)OCc1ccccc1 (stereo unspecified) (Cbz-[Aib]-[ξF]-Gly-OEt) | > 100 µM
* COc1ccc2nc3c([N+](=O)[O-])ccc4c3c(c2c1)NCCN4CCN(C)C | 4 µM
* COc1cc(/C=C2\N=C(c3ccccc3)N(c3ccc(C(=O)c4ccccc4)cc3N3C(=O)/C(=C/c4ccc(O)c(OC)c4)N=C3c3ccccc3)C2=O)ccc1O | > 100 µM

---

System: HT29 colon
protocolNotes: NCI tumour cell line growth inhibition, 48 h; in the data active = GI50 below about 0.43 µM; inactive = the rest
Possible outcomes: active, inactive

- O=C1CC(c2ccccc2)Cc2nc3ccc(Br)cc3cc21 (stereo not drawn): active
- COc1ccc(/C=C2\COc3ccc(O)c(O)c3C2=O)c(OC)c1OC: inactive
- COc1ccc(CCN(CC(=O)N(CC(N)=O)C2CCC[C@@H]2OCc2ccccc2)C(=O)CN(C(=O)CN(CCc2ccc(Cl)cc2)C(=O)CN(C(=O)CN(C)Cc2ccccc2F)[C@H](C)C2CCCCC2)[C@H](C)C2CCCCC2)cc1OC (stereo partly drawn): inactive
- COc1cc(/C=C2\CCC/C(=C\c3ccc(O)c(OC)c3)C2=O)ccc1O: inactive
- CC(=O)CC/C=C(\C)[C@H](O)[C@H](C)C(=O)O[C@H]1C[C@H](C)C=C2C=C[C@@]3(C)O[C@@H](O)CC(=O)[C@]3(C)[C@H]21: active
- COc1cc(/C=C/c2cc(/C=C/c3ccc(O)c(OC)c3)n(C(=O)Nc3ccccc3Cl)n2)ccc1O: active
- COC1=C(C)C(=O)c2c(c(CCCl)c3n2CCC3OC(C)=O)C1=O (stereo not drawn): active
- O=C(COc1cccc(/C=C2\CSc3ccc(Cl)cc3C2=O)c1)c1ccc(Cl)cc1: inactive

---

Test system: EKVX NSCLC
protocolNotes: NCI tumour cell line growth inhibition, 48 h
testReadout: TGI

• CC(=O)OCC1OC(N2C(c3ccccc3)=CC(c3ccco3)C(C#N)=C2S)C(OC(C)=O)C(OC(C)=O)C1OC(C)=O (configuration not stated) = > 52.1 µM
• CCC1C(C(=O)Nc2ccccc2C)=C(C)NC(C)=C1c1ccccc1C (configuration not stated) = > 100 µM
• Clc1cc(Cl)c(OCCCCCCN2CCNCC2)c(Cl)c1 = 22.3 µM
• Cc1cc(N2CCCCC2)nc(NC2CCCC(Nc3ccnc4cc(Cl)ccc34)C2)n1 (configuration not stated) = 3.54 µM
• COC(=O)[C@@]1(C)C(=O)CC[C@@H]1C=O = > 100 µM
• O=C(O)CC(NC(=O)/C(=C/c1ccccc1)NC(=O)c1ccccc1)C(=O)O (configuration not stated) = > 100 µM
• N#CC1=C2SCCN2C(=O)C(C#N)C12CCCCC2 (configuration not stated) = > 100 µM
• CC(C)(c1ccccc1)c1cc(O)c(C(C)(C)c2ccccc2)cc1O = 12.5 µM
• N#Cc1c(NC(=O)c2ccc(F)cc2)sc2c1CCCC2 = > 25 µM
• O=C(NCCCNCCN1C(=O)c2cccc3cc([N+](=O)[O-])cc(c23)C1=O)c1cc(-c2ccccc2)nc2ccccc12 = 22.8 µM
• S=c1c2[nH]cnc2ncn1CCSC1=NC=NC2=NC=NC21 (configuration not stated) = > 100 µM
• CC1(C)C2CCC1(C)C(OC(=O)/C=C/C(=O)OC1CC3CCC1(C)C3(C)C)C2 (configuration not stated) = > 100 µM
• OCC(O)CNc1ncnc2ccccc12 (configuration not stated) = > 100 µM
• CCC1(CC)C(=O)N(C(=O)c2ccccc2)N(C(=O)c2ccc(Cl)cc2)C1=O = > 75 µM
• Cc1ccc(C=C2C(Cl)=C(Cl)C(Cl)=C2Cl)cc1 = 4.28 µM
• CNC1Cc2c[nH]c3cccc(c23)C12C=C(C)C(=O)O2 (configuration not stated) = > 100 µM
• Cn1cc(-c2nc(-c3c[nH]c4ncccc34)cs2)c2ccccc21 = 61.1 µM
• COC(=O)c1ccccc1CC1Cc2cc3c(cc2C1=O)CCC3 (configuration not stated) = > 100 µM
• N#Cc1ccc(-c2nc3c(N)nc(-c4ccccc4)nc3o2)cc1 = > 100 µM
• CCOC(=O)CC1(Cc2ccc(OCc3ccccc3)cc2)C(=O)OC(c2ccccc2)N1C(=O)c1ccccc1 (configuration not stated) = > 100 µM
• COc1ccc(/C=C2\COc3ccc(O)c(O)c3C2=O)c(OC)c1OC = 25.8 µM
• Cc1cc(C)nc(NS(=O)(=O)c2ccc(Nc3c4ccccc4nc4c(C(=O)NC(CO)(CO)CO)cccc34)cc2)n1 = > 100 µM
• CNC1c2ccccc2C(=O)c2cc3c(cc21)OCCOCCOCCOCCO3 (configuration not stated) = > 100 µM
• NS(=O)(=O)c1ccc(Nc2c3ccccc3nc3c(C(=O)N4CCN(CCO)CC4)cccc23)cc1 = > 100 µM
• CN(Cc1cn(O)c2nc(=N)nc(N)c-2n1)c1ccc(C(=O)NC23CC4CC(CC(C4)C2)C3)cc1 = > 100 µM
• CN(C)CCC(CCN(C)C)=NO = > 100 µM
• COC(=O)c1cc2oc(/C=C3/SC(=S)N(N)C3=O)cc2n1Cc1ccccc1 = > 81.8 µM
• C/C(=N\OCC(O)CNCCSCc1ccccc1)c1ccccc1Cl (configuration not stated) = 40.6 µM
• CC(=O)OCC1OC(OC2C(COC(C)=O)OC(Sc3ccccc3C)C(OC(C)=O)C2OC(C)=O)C(OC(C)=O)C(OC(C)=O)C1OC(C)=O (configuration not stated) = > 100 µM
• CCOC(=O)C1(C/C=C/CCl)CCCC1=O (configuration not stated) = 37.9 µM
• COc1ccc(-c2nc3c(nc2-c2ccc(OC)cc2)C(N)=NS(=O)(=O)N3)cc1 = > 100 µM
• C=C1C(=O)O[C@@H]2/C=C(\C)CC/C=C(\C)CC[C@@]12O = 12.1 µM
• N#CCC(=O)N/N=C1/C(=O)N(c2cc(Cl)ccc2Cl)C(=O)C(=O)C1c1nc2ccccc2s1 (configuration not stated) = > 100 µM
• COc1ccc2nc3c([N+](=O)[O-])ccc4c3c(c2c1)NCCN4CCN(C)C = 2.78 µM
• CN(C)CCCSc1ccccc1NC1=C(Cl)C(=O)C(Nc2ccccc2SCCCN(C)C)=C(Cl)C1=O = 3.38 µM
• N#CC(C#N)=C1CCOc2ccc(F)cc21 = 9.3 µM
• COc1ccc2c(c1)-c1c(c3cc(OC)ccc3n1CCCN(C)C)CC2 = 31.4 µM
• Cc1ccc(/C=C(\NC(=O)c2ccccc2)c2nc3ccccc3[nH]2)cc1 = > 100 µM
• O=C(N/C(=C\c1cccc([N+](=O)[O-])c1)c1nc2ccccc2[nH]1)c1ccccc1 = > 100 µM
• CCCCNS(=O)(=O)c1n[nH]c(=O)[nH]c1=O = > 100 µM
• COc1cc(C2OC(N)=C(C#N)C3=C2C(C)CCC3)cc(OC)c1OC (configuration not stated) = > 100 µM
• CC1C(=O)CC(c2cccs2)N(N=O)C1c1cccs1 (configuration not stated) = > 100 µM
